# tgt: SdiA (Salmonella enterica subsp. enterica serovar Typhimurium, UniProt O66040)
# Sequence (O66040 entry or part of it): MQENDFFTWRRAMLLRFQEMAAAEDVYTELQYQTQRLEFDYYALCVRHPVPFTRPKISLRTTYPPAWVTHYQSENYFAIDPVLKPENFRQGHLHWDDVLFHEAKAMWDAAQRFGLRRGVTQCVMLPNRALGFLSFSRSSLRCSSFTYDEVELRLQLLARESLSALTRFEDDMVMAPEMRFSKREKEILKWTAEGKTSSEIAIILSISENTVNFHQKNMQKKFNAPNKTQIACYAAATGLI
# test-details: S. Typhimurium-pJNS25 SdiA reporter, competitive antagonism against 10 nM L-OOHL
# Assay type: cell-based
# test-context: 1 μM compound; average ± STD, change in activity from 10 nM 2 (OOHL)
Response field label: string, one of rule met (Antagonism 1 μM Inhibition (%) strictly below 20%) or rule not met.

molecule | label
O=C(Cc1cccc([N+](=O)[O-])c1)NCc1cccc([N+](=O)[O-])c1 | rule met
CCCCCCC(=O)N[C@H]1CCSC1=O | rule met
CCCCCC(=O)N[C@H]1CCSC1=O | rule met
CC(C)(C)OC(=O)Nc1ccc(C(=O)N[C@H]2CCOC2=O)cc1 | rule met
O=C(Cc1ccc(Br)cc1)N[C@H]1CCSC1=O | rule met
O=C(CCc1ccc(I)cc1)N[C@H]1CCOC1=O | rule met
CCCCCC(O)CC(=O)N[C@H]1CCOC1=O (some centres unmarked) | rule met
O=C(N[C@H]1CCOC1=O)C1CCCCC1 | rule met
CCCCCCCCCC(=O)NC1CCCC1 [compound 17, reference compound] | rule not met
O=C(COc1cccc([N+](=O)[O-])c1)N[C@H]1CCOC1=O | rule met
O=C(CCc1cccc([N+](=O)[O-])c1)N[C@H]1CCOC1=O | rule met
O=C(CCc1c[nH]c2ccccc12)N[C@H]1CCOC1=O | rule met
O=C(Cc1ccccc1I)N[C@H]1CCOC1=O | rule met
CC(C)(C)OC(=O)Nc1ccc(CC(=O)N[C@H]2CCOC2=O)cc1 | rule met
COc1ccc(C(=O)N[C@H]2CCOC2=O)cc1 | rule not met
CCCCCCCCCCCCCC(O)CC(=O)N[C@H]1CCOC1=O (some centres unmarked) | rule met
O=C(CCc1ccc(C(F)(F)F)cc1)N[C@H]1CCOC1=O [compound 9, reference compound] | rule not met
O=C(Cc1ccccc1Cl)N[C@H]1CCOC1=O | rule not met
O=C(N[C@H]1CCOC1=O)c1cccc(Br)c1 | rule met
O=C(CCc1cccs1)N[C@H]1CCOC1=O | rule met
O=C(Cc1ccccc1F)N[C@H]1CCOC1=O | rule met
Nc1ccc(CC(=O)N[C@H]2CCOC2=O)cc1 | rule met
CCOc1ccc(C(=O)N[C@H]2CCOC2=O)cc1 | rule not met

====

# tgt: SdiA (Salmonella enterica subsp. enterica serovar Typhimurium, UniProt O66040)
# test-details: S. Typhimurium-pJNS25 SdiA reporter, competitive antagonism against 10 nM L-OOHL
# Format: cell-based
# test-context: 100 μM compound; average ± STD, change in activity from 10 nM 2 (OOHL); read-out: Antagonism 100 μM Inhibition (%)

compound | inhibition at 100 µM [%]
CCOC(=O)CNC(=O)Cc1cccc([N+](=O)[O-])c1 [F40] | 43
CCCCCCCC(=O)N[C@H]1CCSC1=O [F5] | 0
O=C(Nc1ccccc1NC(=O)c1cccc(Cl)c1)c1cccc(Cl)c1 [compound 20, reference compound] | 39
O=C(Cc1cccc(I)c1)N[C@H]1CCOC1=O [C11] | -4
CCCC(=O)N[C@H]1CCSC1=O [F8] | -23
O=C(CC1CCCC1)N[C@H]1CCOC1=O [B12] | 14
Cc1cccc(OCC(=O)N[C@H]2CCOC2=O)c1 [E16] | -4
CCCCCCCCCCCOc1ccc(C(=O)N[C@H]2CCOC2=O)cc1 [R8] | 67
CSc1cccc(CC(=O)N[C@H]2CCOC2=O)c1 [E7] | 12
CCCCCCCCCCCC(=O)N[C@H]1CCOC1=O [A5] | 43
O=C(Cc1cccc([N+](=O)[O-])c1)N[C@H]1CCOC1=O [C14] | -17
